Tested on: Synaptosomal Uptake of Norepinephrine (NE), rat hypothalmus
Experiment: Blockade of synaptosomal uptake of norepinephrine (NE) in vitro
Type: biochemical, rat (Sprague-Dawley CD)
Conditions: Examples 26-49
pIC50: −log10 of the molar value. Where a name gives a salt, the structure may show the parent alone.
pIC50 values by entry

Compound	pIC50
CN[C@H]1CC[C@@H](c2ccccc2OC)c2ccccc21 (relative stereo)	5.64
CN[C@H]1CC[C@@H](c2ccc(Cl)cc2Cl)c2ccccc21 (relative stereo) [Example 20, Hydrochloride]	6.51
CN[C@H]1CC[C@@H](c2ccc(C(F)(F)F)cc2)c2ccccc21 (relative stereo) [Example 8]	5.01
CN[C@H]1CC[C@@H](c2ccc(Cl)cc2)c2ccc(Cl)cc21 (relative stereo) [Example 15, Hydrochloride]	5.66
